- TEST_SYSTEM: LTB4 Receptor (Homo sapiens)
- Construct: Neutrophils were purified from venous blood of normal human donors; endogenous in cells; host or cells: neutrophils from venous blood of normal human donors
- Sequence (Q15722 whole entry): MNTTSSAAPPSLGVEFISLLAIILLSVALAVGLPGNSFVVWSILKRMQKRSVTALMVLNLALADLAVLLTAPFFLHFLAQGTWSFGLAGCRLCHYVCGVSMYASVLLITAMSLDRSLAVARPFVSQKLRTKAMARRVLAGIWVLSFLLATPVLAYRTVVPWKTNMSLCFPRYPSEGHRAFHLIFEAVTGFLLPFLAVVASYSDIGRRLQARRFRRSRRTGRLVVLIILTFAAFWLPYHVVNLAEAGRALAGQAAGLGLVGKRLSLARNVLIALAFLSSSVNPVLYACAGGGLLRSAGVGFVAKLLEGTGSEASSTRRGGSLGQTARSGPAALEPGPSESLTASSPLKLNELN
- EXPERIMENTAL_PROTOCOL: LTB4 Receptor Binding Assay ((3H) LTB4, human neutrophils)
- ASSAY_SETUP: relative to the compound of Example 1 (b), defined as 1.0
Binary label based on Relative Potency, LTB4 Receptor Binding with cut-off 2: below gives yes (1), not below gives no (0).

INPUT: Quick check: does CCCc1c(OCCCOc2ccc(C(=O)NC)c(OC)c2CCC)cccc1OCC(=O)O have Relative Potency, LTB4 Receptor Binding under 2?
OUTPUT: yes (1)

INPUT: Consider CCCc1c(OCCCOc2ccc(C(N)=O)c(OC)c2CCC)cccc1OCC(=O)O . Does its Relative Potency, LTB4 Receptor Binding lie strictly below 2?
OUTPUT: yes (1)

INPUT: Hello, is Relative Potency, LTB4 Receptor Binding of the following compound strictly smaller than 2? C=CCc1c(OCCCOc2ccc3c(c2CCC)OC(C(=O)O)CC3)ccc(C(=O)NC)c1OC (centres unmarked)
OUTPUT: no (0)

INPUT: Decide: Relative Potency, LTB4 Receptor Binding of C=CCc1c(OCCCOc2cccc(OCC(=O)O)c2CCC)ccc(C(N)=O)c1OC strictly below 2?
OUTPUT: yes (1)

INPUT: Here's an entry: CCCc1c(OCCCOc2ccc(C(=O)NC)c(OC)c2CC2CC2)ccc2c1OC(CCC(=O)O)CC2 (centres unmarked) . Is its Relative Potency, LTB4 Receptor Binding below 2?
OUTPUT: no (0)

INPUT: Regarding CCCc1c(OCCCOc2ccc(C(=O)NC)c(OC)c2CCC)ccc2c1OC(CCC(=O)O)CC2 (centres unmarked) , kindly confirm whether its Relative Potency, LTB4 Receptor Binding is beneath 2.
OUTPUT: no (0)

INPUT: Is it true that Relative Potency, LTB4 Receptor Binding reported for CCCc1c(OCCCOc2ccc(C(=O)NC)c(OC)c2CC2CC2)ccc2c1OC(C(=O)O)CC2 (centres unmarked) is less than 2?
OUTPUT: no (0)

INPUT: Is Relative Potency, LTB4 Receptor Binding of C=CCc1c(OCCCOc2ccc3c(c2CCC)OC(C(=O)O)CC3)ccc(C(N)=O)c1OC (centres unmarked) strictly below 2?
OUTPUT: no (0)

These measurements were taken from patent US5124350A.
